Listing of recorded koff by entry.
- test system: T1, cynoCD46-His (cynomolgus, UniProt A0A2K5WCL8 35-328)
- T1 construct: extracellular domain; Immobilised by amine coupling on the SPR chip; not shown: His tag
- T1 sequence: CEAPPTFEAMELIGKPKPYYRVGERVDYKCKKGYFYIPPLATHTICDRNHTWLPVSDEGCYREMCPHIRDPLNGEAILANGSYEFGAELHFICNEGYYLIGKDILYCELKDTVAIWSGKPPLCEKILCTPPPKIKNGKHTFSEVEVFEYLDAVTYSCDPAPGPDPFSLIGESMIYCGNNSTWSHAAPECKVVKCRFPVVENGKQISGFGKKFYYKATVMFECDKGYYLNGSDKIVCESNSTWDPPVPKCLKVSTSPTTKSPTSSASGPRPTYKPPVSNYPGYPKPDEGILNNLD
- assay text: SPR, cynoCD46-His immobilised, antibody as analyte, pH 7.4
Numeric answer only, unit s⁻¹ assumed.

Solved cases (3 shown):
{"binder": "BA-133-04-02 (antibody, V domains shown, also called CPE hit BA133-04-02) VH: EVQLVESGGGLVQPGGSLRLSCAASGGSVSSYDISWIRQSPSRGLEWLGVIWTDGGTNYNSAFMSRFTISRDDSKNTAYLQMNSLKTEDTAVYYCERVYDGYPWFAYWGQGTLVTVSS VL: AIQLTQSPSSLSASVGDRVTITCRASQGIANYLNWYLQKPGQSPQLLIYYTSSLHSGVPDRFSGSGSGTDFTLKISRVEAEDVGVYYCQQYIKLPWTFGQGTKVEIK", "units symbol": "s⁻¹", "koff": 0.000904}
{"binder": "BAP133-2-03-03-SL (antibody, V domains shown, the killing assays used the ADC form; also called BAP133-02-03-03-SL; CPE hit BAP133-2-03-03-SL) VH: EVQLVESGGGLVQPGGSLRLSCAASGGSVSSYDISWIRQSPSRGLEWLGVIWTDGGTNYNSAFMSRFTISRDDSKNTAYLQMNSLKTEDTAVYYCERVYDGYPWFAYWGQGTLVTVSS VL: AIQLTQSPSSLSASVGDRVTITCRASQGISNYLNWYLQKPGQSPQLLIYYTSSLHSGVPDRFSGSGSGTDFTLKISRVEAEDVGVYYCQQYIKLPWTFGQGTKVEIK", "units symbol": "s⁻¹", "koff": 0.00242}
{"binder": "BAP133-2-02-12 (antibody, V domains shown, also called BAP133-02-02-12; CPE hit BAP133-2-02-12) VH: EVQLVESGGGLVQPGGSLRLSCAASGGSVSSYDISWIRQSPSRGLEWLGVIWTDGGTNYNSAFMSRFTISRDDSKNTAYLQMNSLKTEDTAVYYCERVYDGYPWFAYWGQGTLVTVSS VL: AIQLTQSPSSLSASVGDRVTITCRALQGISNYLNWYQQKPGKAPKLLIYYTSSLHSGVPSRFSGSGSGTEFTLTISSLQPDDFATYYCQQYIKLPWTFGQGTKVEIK", "units symbol": "s⁻¹", "koff": 0.00192}

Form field koff, entry BA-133-04-04 (antibody, V domains shown, the killing assays used the ADC form; also called CPE hit BA133-04-04) VH: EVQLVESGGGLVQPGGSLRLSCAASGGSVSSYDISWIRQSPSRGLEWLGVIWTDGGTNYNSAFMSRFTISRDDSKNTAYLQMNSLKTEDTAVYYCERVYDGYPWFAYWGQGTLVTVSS VL: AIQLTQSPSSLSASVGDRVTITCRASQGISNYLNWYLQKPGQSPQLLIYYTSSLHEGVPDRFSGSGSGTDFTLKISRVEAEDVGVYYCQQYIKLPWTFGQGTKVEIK : 0.00154

src = patent US20230242662A1
